- assay-method-text: Plasma pharmacokinetics on fraction day
- Assay type: in vivo, human
- condition-set: human, plasma, oral, Mean terminal half-life, all dosing groups, independent of the dose level
measure-name: half-life

>>> result_value("COc1ccc([C@@H](O)c2cc(-c3ncnc4cc(N5CCOCC5)ccc34)c(F)cc2Cl)nn1 [Peposertib]")
"5 to 6 h"
